# methodDescription: Apparent permeability from basolateral to apical side of human Caco-2 cells at 50 uM after 90 mins
# Format: ADME, cell-based
assayEndpoint: Papp B→A at 1.5 h, 50 µM (×10⁻⁶ cm/s)
The reply should contain only the number, in ×10⁻⁶ cm/s.

These solved cases illustrate the format of a correct answer.
{"smilesInput": "CC(C)C[C@@H](c1c(O)c(C=O)c(O)c(C=O)c1O)[C@@]1(C)CC[C@@H]2[C@@H]1[C@H]1[C@@H](CC[C@@]2(C)O)C1(C)C", "assayEndpoint": "Papp B→A at 1.5 h, 50 µM", "quantitativeResult": 1.68}
{"smilesInput": "Cc1cc(=O)c2c(O)cc(O[C@@H]3O[C@H](COC(=O)C4=CC[C@H](C(C)(C)O)CC4)[C@@H](O)[C@H](O)[C@H]3O)cc2o1", "assayEndpoint": "Papp B→A at 1.5 h, 50 µM", "quantitativeResult": 3.32}

We next turn to a different compound, shown below.
// recorded Papp B→A at 1.5 h, 50 µM for "CC(C)C[C@H](c1c(O)c(C=O)c(O)c(C=O)c1O)[C@@]1(C)CC[C@@H]2[C@@H]1[C@H]1[C@@H](CC[C@@]2(C)O)C1(C)C" : 2

---

# methodDescription: Drug level in Caco-2 cells assessed as total recovery rate at 50 uM after 60 mins
# Assay type: ADME, cell-based
# conditionSet: human, read-out: Drug uptake
Known recovery at 1 h, 50 µM of a selection of compounds
The reply should contain only the number, in %.

// recorded recovery at 1 h, 50 µM for "CC(C)C[C@H](c1c(O)c(C=O)c(O)c(C=O)c1O)[C@@]1(C)CC[C@@H]2[C@@H]1[C@H]1[C@@H](CC[C@@]2(C)O)C1(C)C" : 56.6

// recorded recovery at 1 h, 50 µM for "CC(C)C[C@@H](c1c(O)c(C=O)c(O)c(C=O)c1O)[C@@]1(C)CC[C@@H]2[C@@H]1[C@H]1[C@@H](CC[C@@]2(C)O)C1(C)C" : 63.1

// recorded recovery at 1 h, 50 µM for "Cc1cc(=O)c2c(O)cc(O[C@@H]3O[C@H](COC(=O)C4=CC[C@H](C(C)(C)O)CC4)[C@@H](O)[C@H](O)[C@H]3O)cc2o1" : 53.1

Recorded values, source ChEMBL document CHEMBL1138427.
